All values here come from patent US20240300948A1.

Entries annotated with measured IC50
- MEASURED ON: catalytic domain (JH1, amino acids 826-1132) of human JAK2 (Homo sapiens, UniProt O60674)
- Construct: catalytic domain (JH1, amino acids 826-1132) of human JAK2; FLAG (N)
- Sequence (O60674 826-1132): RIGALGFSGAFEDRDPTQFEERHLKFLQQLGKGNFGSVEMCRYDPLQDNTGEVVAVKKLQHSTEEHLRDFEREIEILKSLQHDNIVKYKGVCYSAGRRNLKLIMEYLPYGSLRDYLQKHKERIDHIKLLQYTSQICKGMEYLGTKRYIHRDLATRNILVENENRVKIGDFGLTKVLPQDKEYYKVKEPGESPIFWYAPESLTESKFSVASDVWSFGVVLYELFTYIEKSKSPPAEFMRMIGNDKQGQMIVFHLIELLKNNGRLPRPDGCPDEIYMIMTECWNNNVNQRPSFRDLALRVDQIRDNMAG
- TEST: JAK2 LanthaScreen JH1 binding assay
- EXPERIMENTAL PARAMETERS: 50 nM tracer, 2 hours at 25° C., read-out: JH1 BIND IC50

Below: 5 compounds and their reported IC50.
COMPOUND: COC(=O)N[C@H]1C[C@H](N2C(=O)NCc3cnc4[nH]c(C5=CCN(C)CC5)c(-c5ccc6c(cnn6C(C)C)c5)c4c32)C1 [Example 34]
ENDPOINT RESULT: > 1000 nM
--
COMPOUND: COC(=O)N1CC2(CCC(N3C(=O)NCc4cnc5[nH]c(-c6cnn(C)c6)c(-c6ccc7c(cnn7C(C)C)c6)c5c43)CC2)C1 [Example 18]
ENDPOINT RESULT: 100 to 500 nM
--
COMPOUND: COC(=O)N[C@@H]1CC[C@@H](N2C(=O)NCc3cnc4[nH]c(-c5cnn(C)c5)c(-c5ccc6c(cnn6C(C)C)c5)c4c32)C1 [Example 30]
ENDPOINT RESULT: > 1000 nM
--
COMPOUND: CC(C)n1ncc2cc(-c3c(-c4cnn(C)c4)[nH]c4ncc5c(c34)N([C@H]3C[C@@H](NC(=O)c4nc(C(F)(F)F)cs4)C3)C(=O)NC5)ccc21 [Example 22]
ENDPOINT RESULT: > 1000 nM
--
COMPOUND: CC(=O)N[C@H]1C[C@@H](N2C(=O)NCc3cnc4[nH]c(-c5cnn(C)c5)c(-c5ccc6c(cnn6C(C)C)c5)c4c32)C1 [Example 5]
ENDPOINT RESULT: 500 to 1000 nM

Enquiry: Can you share its IC50? I mean this compound: CC(C)n1ncc2cc(-c3c(-c4cnn(C)c4)[nH]c4ncc5c(c34)N(C3CCN(C(=O)NCC(F)F)CC3)C(=O)NC5)ccc21 [Example 17]
Return: > 1000 nM

Enquiry: Can you share its IC50? I mean this compound: COC(=O)N[C@@H]1CC[C@@H](n2c(=O)nc(OC)c3cnc4[nH]c(-c5cnn(C)c5)c(-c5ccc6c(cnn6C(C)C)c5)c4c32)C1 [Example 40]
Return: > 1000 nM

Enquiry: Can you share its IC50? I mean this compound: CC(C)n1ncc2cc(-c3c(-c4cnn(C)c4)[nH]c4ncc5c(c34)N([C@H]3C[C@@H](NC(=O)Cc4ccn(C)n4)C3)C(=O)NC5)ccc21 [Example 21]
Return: 500 to 1000 nM

Enquiry: Can you share its IC50? I mean this compound: COC(=O)N[C@@H]1CC[C@@H](N2C(=O)NCc3cnc4[nH]c(-c5cnn(C)c5)c(-c5ccc(OC)cc5)c4c32)C1 [Example 28]
Return: > 1000 nM

Enquiry: Can you share its IC50? I mean this compound: CC(C)n1ncc2cc(-c3c(-c4cnn(C)c4)[nH]c4ncc5c(c34)N(C3CCC4(CC3)CN(S(=O)(=O)C3(C)CC3)C4)C(=O)NC5)ccc21 [Example 20]
Return: > 1000 nM

Enquiry: Can you share its IC50? I mean this compound: CC(C)n1ncc2cc(-c3c(-c4cnn(C)c4)[nH]c4ncc5c(c34)N([C@H]3C[C@@H](NS(C)(=O)=O)C3)C(=O)NC5)ccc21 [Example 6]
Return: 100 to 500 nM

Enquiry: Can you share its IC50? I mean this compound: CC(C)n1ncc2cc(-c3c(-c4cnn(C)c4)[nH]c4ncc5c(c34)N(C3CCN(S(C)(=O)=O)CC3)C(=O)NC5)ccc21 [Example 16]
Return: > 1000 nM
